# target system: κ-opioid receptor (Homo sapiens)
# assay overview: κ-opioid receptor GTPγS functional assay, U2OS cells
# Type: biochemical
# Design: expressed in transfected cells; host or cells: U-2 OS
# cond: U2OS cells; read-out: GTPγS κ EC50
reported property: EC50 (nM)
The response must be a number in nM with no trailing unit.

compound	EC50 (nM)
C[C@H]1[C@H]2Cc3ccc(O)cc3[C@]1(CCNS(C)(=O)=O)CCN2CC1CC1 [Compound 3]	0.32
COc1ccc2c(c1)[C@]1(CCN(C)CCCN(C)C)CCN(C)[C@H](C2)[C@@H]1C [Compound 54]	9860
COC[C@@H]1CCCN1CC[C@]12CCN(C)[C@H](Cc3ccc(OC)cc31)[C@@H]2C [Compound 56]	5490

With those in mind, consider the next compound.
Please give the documented EC50 of C[C@H]1[C@H]2Cc3ccc(O)cc3[C@]1(CCNS(=O)(=O)C1CC1)CCN2CC1CC1 [Compound 6] 0.072

###

# target system: μ-opioid receptor (Homo sapiens, UniProt P35372)
# Sequence (P35372 whole entry, species assumed): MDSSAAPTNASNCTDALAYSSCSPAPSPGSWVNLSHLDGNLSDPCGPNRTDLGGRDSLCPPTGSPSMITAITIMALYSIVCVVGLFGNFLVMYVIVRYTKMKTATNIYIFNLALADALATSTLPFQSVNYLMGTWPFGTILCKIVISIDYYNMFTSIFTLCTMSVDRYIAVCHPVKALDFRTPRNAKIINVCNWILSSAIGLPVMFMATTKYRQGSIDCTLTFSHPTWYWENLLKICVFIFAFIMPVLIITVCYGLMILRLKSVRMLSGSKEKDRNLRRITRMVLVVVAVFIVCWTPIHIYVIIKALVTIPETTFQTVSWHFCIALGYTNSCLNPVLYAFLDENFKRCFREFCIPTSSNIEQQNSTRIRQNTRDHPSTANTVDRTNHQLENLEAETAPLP
# assay overview: biochemical
# Set-up: purchased Perkin Elmer, Shelton, Conn; host or cells: HEK-293 or CHO
# cond: HEK-293 or CHO cells; read-out: GTPγS μ EC50
Recorded EC50 by entry
The response must be a number in nM with no trailing unit.

C[C@H]1[C@H]2Cc3ccc(O)cc3[C@]1(CCNC(=O)Nc1cccc(F)c1)CCN2C 19.7
C[C@H]1[C@H]2Cc3ccc(O)cc3[C@]1(CCNC(=O)[C@@H]1CCCC(=O)N1)CCN2CC1CC1 19.6
C[C@H]1[C@H]2Cc3ccc(O)cc3[C@]1(CC(=O)N1CCC(N(C3CC3)S(=O)(=O)c3ccc(Cl)cc3)CC1)CCN2C 283
COC(=O)[C@H](C)NCC[C@]12CCN(CC3CC3)[C@H](Cc3ccc(OC)cc31)[C@@H]2C 551
COc1ccc2c(c1)[C@@]1(CCNC3(C(=O)O)CC3)CCN(CC3CC3)[C@@H](C2)[C@H]1C 17500
C[C@H]1[C@H]2Cc3ccc(O)cc3[C@]1(CCNCc1ccc(F)cc1)CCN2CC1CC1 3.04

With those in mind, consider the next compound.
Please give the documented EC50 of COc1ccc2c(c1)[C@]1(CCNC3(C(=O)O)CC3)CCN(CC3CC3)[C@H](C2)[C@@H]1C 2880

###

# target system: κ-opioid receptor (Homo sapiens, UniProt P41145)
# Sequence (P41145 whole entry): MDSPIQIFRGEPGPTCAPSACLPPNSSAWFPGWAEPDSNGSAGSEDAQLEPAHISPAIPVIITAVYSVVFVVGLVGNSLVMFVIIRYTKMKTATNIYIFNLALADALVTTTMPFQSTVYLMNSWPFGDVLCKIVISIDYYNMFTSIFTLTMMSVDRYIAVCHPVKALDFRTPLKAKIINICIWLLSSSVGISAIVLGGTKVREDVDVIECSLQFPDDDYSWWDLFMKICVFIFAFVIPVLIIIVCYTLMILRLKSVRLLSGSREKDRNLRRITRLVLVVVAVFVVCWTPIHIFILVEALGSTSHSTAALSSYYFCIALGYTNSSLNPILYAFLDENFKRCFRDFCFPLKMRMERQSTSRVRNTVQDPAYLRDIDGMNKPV
# assay overview: κ-opioid receptor GTPγS functional assay, U2OS cells
# Format: biochemical
# Design: expressed in transfected cells; host or cells: U-2 OS
# cond: U2OS cells
# Description: Plates were incubated for 30 min at a temperature of about 25° C. with shaking.
reported property: Emax (%)
The response must be a number in % with no trailing unit.

Recorded Emax, per entry:
COc1ccc2c(c1)[C@]1(CCNCCc3ccc(S(N)(=O)=O)cc3)CCN(C)[C@H](C2)[C@@H]1C 96.3
COC[C@@H]1CCCN1CC[C@]12CCN(C)[C@H](Cc3ccc(OC)cc31)[C@@H]2C 94.7
CC(C)C[C@H](NCCCC[C@]12CCN(CC3CC3)[C@H](Cc3ccc(O)cc31)[C@@H]2C)C(=O)O 98.3

With those in mind, consider the next molecule.
Please give the documented Emax of COc1ccc2c(c1)[C@]1(CCO)CCN(C)[C@H](C2)[C@@H]1C 103
